system: MDA-MB-468 breast; test: NCI-60 one-dose screen, 48 h (100 = growth as untreated, 0 = no growth, -100 = all killed); details: 10 µM unless noted
The panel holds about 83,000 compounds, 20% with a hit somewhere; the sample as a whole holds those more often.
Attribute: growth
Just the number please, in %, no unit attached.

INSERT INTO measurements (compound, assay_system, unit_string, observed_measurement) VALUES
  ('Cc1ccc(NC2CC(=O)N(c3c(C)cc(C)cc3C)C2=O)c(C)c1 (stereo unspecified)', 'MDA-MB-468 breast', '%', 114),
  ('C=CCc1cc(Nc2c3ccc(Cl)cc3nc3ccc(OC)cc23)cc(CN(CC)CC)c1O', 'MDA-MB-468 breast', '%', -19.1),
  ('Nc1cc2c(cc1Cl)C(=O)c1ccccc1C2=O', 'MDA-MB-468 breast', '%', 70.2),
  ('COc1cc2nc(-c3ccc(Cl)cc3)cc(OCCCNCC3CCCO3)c2cc1OC (stereo unspecified)', 'MDA-MB-468 breast', '%', 46.2),
  ('Oc1ccc(Cl)cc1Cc1cc(Cl)ccc1O', 'MDA-MB-468 breast', '%', 19.2);

Proceed to the following item.
Data request: Which value of growth has been reported for O=S(=O)(NCCCNc1nccc(-c2c(-c3cccc(F)c3)nc3sccn23)n1)c1cccc(F)c1 in the records?
Data returned: 33
